Biological target: Rho-associated protein kinase 2 (Homo sapiens)
Sequence (O75116 whole entry): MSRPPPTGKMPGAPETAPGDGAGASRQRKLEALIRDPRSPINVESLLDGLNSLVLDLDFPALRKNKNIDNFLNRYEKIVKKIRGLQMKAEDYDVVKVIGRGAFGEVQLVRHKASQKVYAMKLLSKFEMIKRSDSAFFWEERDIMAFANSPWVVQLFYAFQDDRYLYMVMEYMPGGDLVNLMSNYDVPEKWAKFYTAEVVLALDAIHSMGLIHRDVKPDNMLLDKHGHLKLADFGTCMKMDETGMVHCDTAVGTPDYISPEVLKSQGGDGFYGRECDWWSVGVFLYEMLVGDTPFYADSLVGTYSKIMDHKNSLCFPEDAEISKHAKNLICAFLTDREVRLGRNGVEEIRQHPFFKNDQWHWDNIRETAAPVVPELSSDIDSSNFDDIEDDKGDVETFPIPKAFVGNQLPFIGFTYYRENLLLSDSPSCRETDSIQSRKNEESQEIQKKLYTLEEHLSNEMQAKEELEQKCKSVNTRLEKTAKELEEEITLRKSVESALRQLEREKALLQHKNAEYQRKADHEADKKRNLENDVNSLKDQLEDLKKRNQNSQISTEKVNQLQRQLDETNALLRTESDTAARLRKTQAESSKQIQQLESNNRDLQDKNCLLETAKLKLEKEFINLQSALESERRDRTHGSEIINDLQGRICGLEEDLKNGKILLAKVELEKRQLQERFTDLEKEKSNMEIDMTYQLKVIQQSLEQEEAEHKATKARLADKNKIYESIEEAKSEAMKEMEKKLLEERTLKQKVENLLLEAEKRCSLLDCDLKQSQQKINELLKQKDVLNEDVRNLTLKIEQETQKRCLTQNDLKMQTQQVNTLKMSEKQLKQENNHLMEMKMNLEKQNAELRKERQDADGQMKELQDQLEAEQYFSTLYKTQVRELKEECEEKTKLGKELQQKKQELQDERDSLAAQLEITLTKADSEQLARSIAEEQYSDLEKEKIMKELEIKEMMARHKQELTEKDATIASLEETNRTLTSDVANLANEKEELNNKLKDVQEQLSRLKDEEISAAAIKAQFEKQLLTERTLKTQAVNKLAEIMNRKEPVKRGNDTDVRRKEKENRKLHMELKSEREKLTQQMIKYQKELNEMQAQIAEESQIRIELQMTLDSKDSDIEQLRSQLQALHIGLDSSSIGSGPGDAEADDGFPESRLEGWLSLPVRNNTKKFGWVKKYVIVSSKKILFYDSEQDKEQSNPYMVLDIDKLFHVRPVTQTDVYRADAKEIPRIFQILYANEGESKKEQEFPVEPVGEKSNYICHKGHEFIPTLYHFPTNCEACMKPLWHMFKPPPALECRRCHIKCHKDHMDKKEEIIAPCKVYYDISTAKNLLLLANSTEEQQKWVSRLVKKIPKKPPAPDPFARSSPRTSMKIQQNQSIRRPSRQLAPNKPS
Assay: Biological Assay: The kinase IC50 was determined by a commercialized CISBIO kinase detection kit, HTRF KinEASE-STK S2 kit (62ST2PEC). ROCK2 (01-119) employed in the reaction was purchased from Carna Biosciences.Before the assay, the following working solutions as needed were formulated with corresponding reagents according to the instruction of the kinase detection kit: 1×kinase buffer, 5×STK-52 substrate working solution (1.5 μM) and 5×ATP working solution (1.5 μM), 5×ROCK2 kinase working solution, 4×Streptavidin-XL665 working solution, and 4×STK-Ab-Cryptate 2 detection solution. Then the assay was performed according to the following procedure.A solution of a compound at a concentration of 10000 nM was prepared with the 1×kinase buffer containing 2.5% DMSO. Gradient dilution of the solution of the compound was performed with the kinase buffer containing DMSO, so as to obtain solutions of a test compound at 9 different concentrations. In addition to wells of test compounds, a positive well (containing all the reagents except the compound) and a negative well (containing all the reagents except the test compound and kinase) were set. Except for the control wells (positive and negative wells), a solution of a test compound (4 μL) was added to each of the reaction wells, and a solution of 2.5% DMSO was added to the control wells. Then the substrate (2 μM, i.e., 2 μL 5×STK-S2 substrate working solution) was added to each of the reaction wells. The 5×ROCK2 kinase working solution (2 μL, containing 1.4 ng ROCK2 kinase) was added to each of the reaction wells except for the negative well, the volume of which was made up with the 1×kinase buffer (2 μL). The 5×ATP working solution (2 μL) was added to each of the reaction wells, and the mixtures were incubated at room temperature for 2 hours. After the kinase reaction was complete, the 4×Streptavidin-XL665 working solution was added to each of the reaction wells, the solutions were mixed, followed by immediate addition of the 4×STK-Ab-Cryptate 2 detection solution (5 μL), and the mixtures were incubated at room temperature for 1 hour. The fluorescence signal was read on ENVISION (Perkinelmer) (excitation wavelength: 320 nm, and emission wavelength: 665 nm and 615 nm). The inhibitory rate in each well was calculated based on the fluorescence intensity value: ER (Emission Ratio)=(fluorescence intensity at 665 nm/fluorescence intensity at 615 nm); inhibitory rate=(ERpositive−ERtest compound) (ERpositive−ERnegative)*100%. Curves were plotted and fitted to obtain the median inhibitory concentration (IC50) of each teat compound with the PRISM 5.0 software.
Parameter: IC50 (nM)

[[record]]
smiles = "O=C(Nc1ccc(-c2cn[nH]c2)cc1)c1cc2ccc(-c3nccc(Nc4ccc5[nH]ncc5c4)n3)cc2[nH]1"
parameter = "IC50"
measured = 71

